Molecular target: Muscarinic acetylcholine receptor M1 (Homo sapiens)
Sequence (P11229 whole entry): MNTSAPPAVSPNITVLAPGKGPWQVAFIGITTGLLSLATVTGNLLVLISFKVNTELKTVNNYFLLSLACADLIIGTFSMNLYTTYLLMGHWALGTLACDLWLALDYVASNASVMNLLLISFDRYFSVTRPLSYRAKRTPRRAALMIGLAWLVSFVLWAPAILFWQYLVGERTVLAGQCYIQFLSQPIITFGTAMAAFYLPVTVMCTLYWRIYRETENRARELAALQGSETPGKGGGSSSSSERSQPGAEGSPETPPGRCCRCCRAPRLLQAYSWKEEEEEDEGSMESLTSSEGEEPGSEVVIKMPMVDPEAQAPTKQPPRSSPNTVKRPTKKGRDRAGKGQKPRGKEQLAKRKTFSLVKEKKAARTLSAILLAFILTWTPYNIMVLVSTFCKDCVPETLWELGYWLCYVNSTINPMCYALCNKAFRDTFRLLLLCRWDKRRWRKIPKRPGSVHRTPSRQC
pKd: −log10 of the molar value.
pKd values for Muscarinic acetylcholine receptor M1 (Homo sapiens) compiled from several publications are listed below.

{"columns": ["compound", "pKd"],
 "data": [
  ["C[N+](C)(CC#CCOC1=NOCC1)CCCCCCNC(=O)c1cn(Cc2ccccc2)c2cc(Cl)c(F)cc2c1=O", 6.07],
  ["CN1CCCCC1/C=C/c1c2ccccc2cc2ccccc12 (configuration not stated)", 6.17],
  ["O=C(CCC1=[N+]2C(=Cc3ccc(-c4cccs4)n3[B-]2(F)F)C=C1)NCCOCCOCCOCCOCCOCCOCCN1CCN(CC(=O)N2c3ccccc3C(=O)Nc3cccnc32)CC1", 8.39],
  ["C[N+](C)(CC#CCOC1=NOCC1)CCCCCCNC(=O)c1cn(Cc2ccccc2)c2c(F)cccc2c1=O", 6.31],
  ["CCCCCNC(=O)/N=C(\\N)NCCCc1sc(N)nc1C", 9.77],
  ["C[N+](C)(CC#CCOC1=NOCC1)CCCCCCNC(=O)c1cn(Cc2ccccc2)c2cc(Br)ccc2c1=O", 7.13],
  ["CN1CCCC[C@@H]1CC=C1c2ccccc2Cc2ccccc21", 7.94]
]}
